# assayed system: DNA repair protein RAD52 homolog (Homo sapiens, UniProt P43351)
# Sequence (P43351 whole entry): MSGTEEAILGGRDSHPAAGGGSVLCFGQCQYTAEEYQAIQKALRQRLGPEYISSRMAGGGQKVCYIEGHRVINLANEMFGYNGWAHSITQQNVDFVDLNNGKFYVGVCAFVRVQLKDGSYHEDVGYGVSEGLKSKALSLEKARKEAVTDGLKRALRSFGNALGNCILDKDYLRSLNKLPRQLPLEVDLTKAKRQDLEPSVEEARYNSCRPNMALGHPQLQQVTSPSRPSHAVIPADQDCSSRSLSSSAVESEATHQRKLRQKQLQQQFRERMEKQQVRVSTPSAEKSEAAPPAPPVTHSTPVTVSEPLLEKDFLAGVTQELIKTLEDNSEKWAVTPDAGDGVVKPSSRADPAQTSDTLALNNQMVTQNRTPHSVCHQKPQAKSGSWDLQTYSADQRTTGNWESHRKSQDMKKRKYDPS
# Format: functional, biochemical
Where a name gives a salt, the structure may show the parent alone. Calls of active or inactive are those of the source.
parameter measured: AC50

Prompt: For Cc1cccc2sc(N(CCCN(C)C)C(=O)c3ccc(Cl)s3)nc12 , what is its reported AC50?
Response: 24.9 µM (active)

Prompt: // lookup AC50 for CCN1CCN(c2cc(C)c3cc(NC(=S)N4CCOCC4)ccc3n2)CC1
Response: 22 µM (active)

Prompt: Given COc1ccc(CC2=NCCc3cc(OC)c(OC)cc32)cc1OC , state its recorded AC50.
Response: 15.2 µM (active)

Prompt: Which AC50 value is on record for CN(C)c1nc(N)c(C(=O)NC(=N)N)nc1Cl [5-(N,N-DIMETHYL)AMILORIDE HYDROCHLORIDE] ?
Response: 18 µM (active)

====

Task for the reader: assign each of the following molecules its reported AC50.

Prompt: Report AC50 for Cn1ncc([N+](=O)[O-])c1C(=O)Nc1ccc2c(c1)OCCO2 tested on Cytochrome P450 2C9 (Homo sapiens, UniProt P11712).
Sequence (P11712 whole entry): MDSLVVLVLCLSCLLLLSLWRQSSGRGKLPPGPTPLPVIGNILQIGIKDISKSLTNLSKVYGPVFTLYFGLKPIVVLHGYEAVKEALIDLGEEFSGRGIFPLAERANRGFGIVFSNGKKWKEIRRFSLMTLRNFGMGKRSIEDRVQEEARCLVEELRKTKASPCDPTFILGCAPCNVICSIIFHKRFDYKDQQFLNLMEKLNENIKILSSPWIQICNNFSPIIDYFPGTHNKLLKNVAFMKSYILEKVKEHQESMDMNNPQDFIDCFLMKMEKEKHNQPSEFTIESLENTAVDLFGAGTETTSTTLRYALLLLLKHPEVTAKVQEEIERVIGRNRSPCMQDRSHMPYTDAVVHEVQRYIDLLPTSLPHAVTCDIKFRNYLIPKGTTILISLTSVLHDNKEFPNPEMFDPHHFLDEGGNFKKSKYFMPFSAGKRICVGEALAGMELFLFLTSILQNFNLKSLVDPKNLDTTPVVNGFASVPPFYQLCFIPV
Response: 11.2 µM (inconclusive)

Prompt: Find AC50 (Cytochrome P450 2C9 (Homo sapiens, UniProt P11712)) for the entry O=C(O)c1cc(-c2ccc(-c3ccc(-c4cc(C(=O)O)c5cc(Cl)ccc5n4)cc3)cc2)nc2ccc(Cl)cc12
Response: 3.16 µM (inconclusive)

Prompt: Short answer please: AC50, Cytochrome P450 2C9 (Homo sapiens, UniProt P11712), entry CCOC(=O)c1c(-c2ccccc2)nc2ccc(Cl)cn12
Response: 15.8 µM (inconclusive)

Prompt: What AC50 appears in the records for this molecule with Cytochrome P450 2C9 (Homo sapiens, UniProt P11712)? CCC1CC(CSc2nc[nH]n2)OC1=O (stereo not given)
Response: 25.1 µM (inconclusive)

Prompt: Short answer please: AC50, Cytochrome P450 2C9 (Homo sapiens, UniProt P11712), entry Cc1ccc(S(=O)(=O)n2c3ccccc3c3nnc(C(=O)c4ccccc4)nc32)cc1
Response: 3.16 µM (inconclusive)

Prompt: # query: AC50 | item COCCn1c(C(=O)N(C)C)cc2c1C[C@H]1CN(C(=O)c3ccccc3)[C@@](Cc3ccc(F)cc3)(C(=O)OC)[C@@H]21 | system: Cytochrome P450 2C9 (Homo sapiens, UniProt P11712)
Response: 25.1 µM (inconclusive)

Prompt: Can you look up AC50 on Cytochrome P450 2C9 (Homo sapiens, UniProt P11712) for Cc1ccc(OCC(=O)Nc2ccc(Cl)cc2)c(-n2nc3ccccc3n2)c1 ?
Response: 2 µM (inconclusive)

Prompt: # returns recorded AC50 (system: Cytochrome P450 2C9 (Homo sapiens, UniProt P11712)) for CCOC(=O)C1CCCN(C(=O)CCn2nc(-c3ccccc3)ccc2=O)C1 (stereo not given)
Response: 31.6 µM (inconclusive)

Prompt: Hi! What's the reported AC50 for COC(=O)c1ccc(NC(=O)c2cc3sccc3n2C)cc1 on Cytochrome P450 2C9 (Homo sapiens, UniProt P11712)?
Response: 10 µM (inconclusive)

Prompt: API: value(readout= AC50, system= Cytochrome P450 2C9 (Homo sapiens, UniProt P11712), query= CNC(=O)/C=C1\NC(C)(C)Cc2c1ccc1ccccc21 )
Response: 5.01 µM (inconclusive)

====

# System: BJ
# protocol details: cytotoxicity toward BJ-TERT fibroblasts, dose response, cell-based, RAS-independent, luminescence (AID 1933)
# Type: functional
# condition set: Homo sapiens
Activity calls are given as the source filed them.
Field: EC50. Provide a value for each of the compounds that follow.

Prompt: Fill blank: measured EC50 of the compound Cc1ccccc1N=Nc1ccc(O)c2ncccc12 is ____.
Response: 10.4 µM (inconclusive)

Prompt: Quick one: EC50 of CCCC/N=C/[C@]12CCC(O)CC1(O)CCC1[C@@H]2CC[C@]2(C)[C@H](C3C=CC(=O)O3)CCC12O (stereo partly specified) ?
Response: 0.321 µM (active)

Prompt: Please give the measured EC50 for this compound: Cc1ccc(CCC(=O)Nc2ncc(Cc3cccc(Cl)c3Cl)s2)o1
Response: 0.311 µM (active)

Prompt: Please look up its EC50: O=C(OCCN1C(=O)c2cccc3c(N4CCOCC4)ccc(c23)C1=O)c1ccccc1Cl
Response: 17.2 µM (active)

Prompt: Can you share its EC50? I mean this compound: C=CCOc1ccc2[nH]c(NC(=O)OC)nc2c1
Response: 1.69 µM (active)

Prompt: Suppose we examine the compound CC(=O)/C(C#N)=C1\NC(=O)C(Cc2cc(Cl)ccc2Cl)S1 (stereo unspecified) ; what EC50 value has been reported?
Response: > 150 µM (not active)

====

# assayed system: Prothrombin (Bos taurus, UniProt P00735)
# protocol details: thrombin inhibition, dose response, biochemical, fluorescence polarization, uHTS hits (AID 602369)
# Assay type: functional
Activity calls are given as the source filed them.
parameter measured: IC50

Prompt: Report IC50 for CCCC1=NN2C(=N)/C(=C\c3ccc(SCc4ccco4)o3)C(=O)N=C2S1 please.
Response: 22.8 µM (active)

Prompt: Please look up its IC50: COc1ccc(CN2C(=O)NC(=O)/C(=C\c3ccco3)C2=O)cc1
Response: 54.1 µM (active)

Prompt: What IC50 value was documented for this compound, COCC/N=c1\scc(-c2cc(OC)c(OC)c(OC)c2)n1/N=C/c1c(C)[nH]c2ccccc12 ?
Response: 57.9 µM (active)

Prompt: Entry CN1CCc2c(sc3c2C(=O)NC(c2cn(Cc4ccccc4)c4ccccc24)N3)C1 (centres undefined) : reported IC50 = ?
Response: 16 µM (active)

====

# assayed system: Luciferin 4-monooxygenase (Photinus pyralis)
# Sequence (P08659 whole entry): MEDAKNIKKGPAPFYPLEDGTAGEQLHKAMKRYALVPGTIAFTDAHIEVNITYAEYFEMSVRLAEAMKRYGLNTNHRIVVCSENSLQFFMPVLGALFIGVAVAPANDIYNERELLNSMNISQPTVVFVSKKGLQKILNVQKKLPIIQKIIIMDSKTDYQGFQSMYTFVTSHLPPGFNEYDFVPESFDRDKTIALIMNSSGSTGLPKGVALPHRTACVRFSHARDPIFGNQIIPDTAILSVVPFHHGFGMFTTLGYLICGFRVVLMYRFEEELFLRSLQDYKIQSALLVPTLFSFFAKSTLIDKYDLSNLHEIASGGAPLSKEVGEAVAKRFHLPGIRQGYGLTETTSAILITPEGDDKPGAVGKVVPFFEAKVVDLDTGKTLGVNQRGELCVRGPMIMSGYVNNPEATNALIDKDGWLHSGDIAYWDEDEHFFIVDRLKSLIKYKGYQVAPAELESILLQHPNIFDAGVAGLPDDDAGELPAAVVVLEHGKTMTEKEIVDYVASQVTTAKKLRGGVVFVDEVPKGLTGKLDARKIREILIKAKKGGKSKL
# protocol details: firefly luciferase enzyme inhibitors, dose response, biochemical, luminescence (AID 1891)
Active and inactive are the calls of the source.
parameter measured: EC50

Prompt: Form field: EC50 recorded for Cc1cccc(NC(=O)CC2SC(=O)N(c3ccccc3)C2=O)c1 (stereo unspecified) with Luciferin 4-monooxygenase (Photinus pyralis) (enter value)
Response: > 112 µM (not active)

Prompt: Could you share what EC50 was measured for COc1ccc(C2NC(c3ccc(OC)cc3)C([N+](=O)[O-])C(C)(C)C2[N+](=O)[O-])cc1 (stereo unspecified) , tested on Luciferin 4-monooxygenase (Photinus pyralis)?
Response: > 112 µM (not active)

Prompt: What reported EC50 corresponds to Cc1cccc(C)c1NC(=O)CN(C)C(=O)Cn1c(=O)cnc2ccccc21 on Luciferin 4-monooxygenase (Photinus pyralis)?
Response: > 112 µM (not active)

Prompt: Requested read-out EC50, target or system Luciferin 4-monooxygenase (Photinus pyralis), entry CCN(CCn1cccn1)Cc1c[nH]nc1-c1cccc2ccccc12
Response: > 112 µM (not active)

Prompt: Form: Entry = C1CCN(c2nc(N3CCCC3)nc(N3CCNCC3)n2)C1 | System = Luciferin 4-monooxygenase (Photinus pyralis) | EC50 = ____
Response: > 112 µM (not active)

Prompt: Lab note: need EC50 for Cc1cc(NC(=O)c2ccc3c(c2)OCO3)ccc1NC(=O)c1ccco1 on Luciferin 4-monooxygenase (Photinus pyralis), anyone have it?
Response: 4.06 µM (active)

Prompt: Enter reported EC50 observed with Luciferin 4-monooxygenase (Photinus pyralis) for Nc1nc(Nc2ccccc2)nc2ccccc12
Response: 1.25 µM (active)

Prompt: Test system Luciferin 4-monooxygenase (Photinus pyralis); read-out EC50; what value for COCCN(C(=O)CC(C)(C)C)c1nnc(-c2cccnc2)s1 ?
Response: > 112 µM (not active)

Prompt: Item: Cc1ccc(Nc2nc(N)c3ccccc3n2)cc1Cl Test system: Luciferin 4-monooxygenase (Photinus pyralis) Read-out: EC50 Value: ?
Response: 0.528 µM (active)

Prompt: # get_value(readout= EC50, system= Luciferin 4-monooxygenase (Photinus pyralis)) for CCc1nnc(NC(=O)CSc2nnc(Cc3cccn3C)n2CCOC)s1
Response: > 112 µM (not active)

Prompt: # query: EC50 | item CNC(=S)Nc1ccc(C(N)=O)cc1 | system: Luciferin 4-monooxygenase (Photinus pyralis)
Response: > 112 µM (not active)
